# tgt: Glc(a1-6)Glc(a1-6)Glc
# method: glycan array binding signal (z-score within array); higher = stronger binding
# test_settings: glycan notation: IUPAC condensed, linker removed
Shown is part of a subset that was picked to be rich in the strongest signals.
We begin with a simple list: items and their reported glycan array binding signal (z-score).
Respond with the number and no other words.

Example cases with answers are listed next.
{"binder": "Sebin1 (Coprinopsis cinerea), A8PEE3 (protein) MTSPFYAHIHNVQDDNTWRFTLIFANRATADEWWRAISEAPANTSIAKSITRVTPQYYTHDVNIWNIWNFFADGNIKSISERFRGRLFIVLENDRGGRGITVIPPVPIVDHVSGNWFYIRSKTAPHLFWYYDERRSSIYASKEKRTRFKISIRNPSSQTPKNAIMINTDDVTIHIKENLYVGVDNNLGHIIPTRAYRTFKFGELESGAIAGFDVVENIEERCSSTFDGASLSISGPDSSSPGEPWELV", "test_readout": "glycan array binding signal (z-score)", "reported": -0.354}
{"binder": "DCAL1 (Homo sapiens), Q8IZS7 (protein) MVSNFFHVIQVFEKSATLISKTEHIGFVIYSWRKSTTHLGSRRKFAISIYLSEVSLQKYDCPFSGTSFVVFSLFLICAMAGDVVYADIKTVRTSPLELAFPLQRSVSFNFSTVHKSCPAKDWKVHKGKCYWIAETKKSWNKSQNDCAINNSYLMVIQDITAMVRFNI", "test_readout": "glycan array binding signal (z-score)", "reported": -0.234}

Query binder follows.
IN: Give the measured glycan array binding signal (z-score) of ASA (Allium sativum) (protein) KAHEKERMGRNTPSAKLMSIAAVAAILTILASTCMARNLLTNGEGLYAGQSLNVEPYHFIMQEDCNLVLYDHSTAVWATNTDIPGKKECRAVLQSDGNFVVYDADGRPLWASHSVRGNGNYVLVLQEDGNVVIYGSDIWSTGTYVKAARGPVVVAMNGTVDGGSLIRPVIVNKNHVPVIRKVGTLSRNILRNDEGLYAGQSLDVEPYHFIMHEDCNLVLYDHSTAVWASNTDIPGKKGCKAVLQSDGNFVVYDAEGRSLWASHSVRGNGNYVLVLQEDGNVVIYGSDIWSTDTYRKSARGPVIRKVGTLAGAA .
OUT: -0.228

The reported numbers originate from the supplement of paper PMC8728848.
